Data provenance: paper PMC6032914

PROTOCOL SUMMARY: Gefitinib pharmacokinetics
Format: in vivo
STATED CONDITIONS: human, plasma, oral, Tmax (h), mean (SD), gefitinib 250 mg daily with ficlatuzumab 20 mg/kg, Cycle 4, day 1, n = 6
ASSAY READOUT: Tmax (h)
Provide the reading as a plain figure in h.

Lookup: Need Tmax, item COc1cc2ncnc(Nc3ccc(F)c(Cl)c3)c2cc1OCCCN1CCOCC1
Found: 9.9

* * *

PROTOCOL SUMMARY: Gefitinib pharmacokinetics
Type: in vivo
STATED CONDITIONS: human, plasma, oral, Tmax (h), mean (SD), gefitinib 250 mg daily with ficlatuzumab 20 mg/kg, Cycle 1, day 1, n = 12
ASSAY READOUT: Tmax (h)
Provide the reading as a plain figure in h.

Lookup: Need Tmax, item COc1cc2ncnc(Nc3ccc(F)c(Cl)c3)c2cc1OCCCN1CCOCC1
Found: 5.4
